Molecular target: T1, EsCas13d, nuclease-dead (Eubacterium siraeum, UniProt B0MS50, R295A;H300A;R849A;H854A)
T1 sequence: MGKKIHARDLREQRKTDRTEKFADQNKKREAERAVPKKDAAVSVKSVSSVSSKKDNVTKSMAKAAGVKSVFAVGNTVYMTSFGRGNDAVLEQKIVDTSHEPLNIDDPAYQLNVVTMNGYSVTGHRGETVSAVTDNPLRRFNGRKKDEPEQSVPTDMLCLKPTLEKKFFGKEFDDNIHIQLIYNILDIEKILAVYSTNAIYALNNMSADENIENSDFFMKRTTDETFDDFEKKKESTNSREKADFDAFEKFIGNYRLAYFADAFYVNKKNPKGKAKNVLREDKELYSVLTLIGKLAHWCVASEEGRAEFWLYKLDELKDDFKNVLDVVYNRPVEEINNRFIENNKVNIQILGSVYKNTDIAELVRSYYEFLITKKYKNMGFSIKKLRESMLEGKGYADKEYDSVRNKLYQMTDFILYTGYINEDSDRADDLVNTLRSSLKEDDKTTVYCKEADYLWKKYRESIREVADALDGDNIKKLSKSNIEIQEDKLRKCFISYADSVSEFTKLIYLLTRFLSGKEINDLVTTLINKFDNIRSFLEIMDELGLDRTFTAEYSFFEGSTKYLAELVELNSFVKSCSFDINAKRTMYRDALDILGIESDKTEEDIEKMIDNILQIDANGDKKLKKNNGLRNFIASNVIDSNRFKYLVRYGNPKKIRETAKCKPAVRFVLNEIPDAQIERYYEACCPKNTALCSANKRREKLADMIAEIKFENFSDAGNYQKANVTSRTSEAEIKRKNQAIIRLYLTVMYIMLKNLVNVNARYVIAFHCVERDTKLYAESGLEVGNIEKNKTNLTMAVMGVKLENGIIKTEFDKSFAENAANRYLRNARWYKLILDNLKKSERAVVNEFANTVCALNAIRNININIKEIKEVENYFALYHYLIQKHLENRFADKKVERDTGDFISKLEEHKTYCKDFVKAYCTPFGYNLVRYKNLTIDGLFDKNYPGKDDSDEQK
Assay: crRNA (strand 1, pre-loaded); Mg2+; 40 mM Tris-HCl pH 7.5, 150 mM NaCl, 6 mM MgCl2, 1 mM DTT, 0.1% Tween-20, 0.2 mg/ml BSA; 25 C; 10 min per concentration, then washed
Conditions: tags: His6-TwinStrep-SUMO cleaved; N-terminal SNAP kept (SNAP-Surface 488); label: 3' end held by stalled T7 RNA polymerase
observed-property: pKd
Numbers only, as −log10 of the molar value.

These recorded examples may help you get a feel for the data.
target 2 MT 5'PFS GUU 3'PFS AAA (mixed) RNA 1: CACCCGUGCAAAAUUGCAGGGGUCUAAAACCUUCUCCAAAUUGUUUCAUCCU RNA 2: GGGAAUGGAUCCACAUCUACGAAUUCGUUAGGAUGAAACAAUUUGGAGAAGAAAAGAUCGGAAGAGCACACGU ... 7.85
target 1 insU 3' of 15,insG 3' of 10 (mixed) RNA 1: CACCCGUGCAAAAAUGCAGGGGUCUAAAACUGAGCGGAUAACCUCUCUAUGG RNA 2: GGGAAUGGAUCCACAUCUACGAAUUCGUACCAUAGAGUAGGUUGAUCCGCUCACCGAGAUCGGAAGAGCACACGU ... 7.67
target 2 MT 5'PFS CAA 3'PFS AUA (mixed) RNA 1: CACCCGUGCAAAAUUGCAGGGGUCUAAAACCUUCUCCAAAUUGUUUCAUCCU RNA 2: GGGAAUGGAUCCACAUCUACGAAUUCCAAAGGAUGAAACAAUUUGGAGAAGAUAAGAUCGGAAGAGCACACGU ... 8.26
target 1 MT 5'PFS ACC 3'PFS UCU (mixed) RNA 1: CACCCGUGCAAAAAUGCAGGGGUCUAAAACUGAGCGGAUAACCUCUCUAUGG RNA 2: GGGAAUGGAUCCACAUCUACGAAUUCACCCCAUAGAGAGGUUAUCCGCUCAUCUAGAUCGGAAGAGCACACGU ... 8.09
target 2 MT 5'PFS ACC 3'PFS CAU (mixed) RNA 1: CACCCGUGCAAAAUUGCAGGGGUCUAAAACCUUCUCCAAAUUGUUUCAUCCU RNA 2: GGGAAUGGAUCCACAUCUACGAAUUCACCAGGAUGAAACAAUUUGGAGAAGCAUAGAUCGGAAGAGCACACGU ... 8.00

For every listed record, write down its pKd.
1. target 1 MT 5'PFS GCG 3'PFS CGG (mixed) RNA 1: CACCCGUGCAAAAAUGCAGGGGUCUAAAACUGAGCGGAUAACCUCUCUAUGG RNA 2: GGGAAUGGAUCCACAUCUACGAAUUCGCGCCAUAGAGAGGUUAUCCGCUCACGGAGAUCGGAAGAGCACACGU
2. target 2 MT 5'PFS GUU 3'PFS AUA (mixed) RNA 1: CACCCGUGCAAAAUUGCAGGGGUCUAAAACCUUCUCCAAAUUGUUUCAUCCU RNA 2: GGGAAUGGAUCCACAUCUACGAAUUCGUUAGGAUGAAACAAUUUGGAGAAGAUAAGAUCGGAAGAGCACACGU
3. target 1 MT 5'PFS GGU 3'PFS UCC (mixed) RNA 1: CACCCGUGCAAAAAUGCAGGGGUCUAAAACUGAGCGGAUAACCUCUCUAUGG RNA 2: GGGAAUGGAUCCACAUCUACGAAUUCGGUCCAUAGAGAGGUUAUCCGCUCAUCCAGAUCGGAAGAGCACACGU
4. target 1 insG 3' of 4,insU 3' of 1 (mixed) RNA 1: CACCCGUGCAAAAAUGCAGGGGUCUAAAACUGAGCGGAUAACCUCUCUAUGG RNA 2: GGGAAUGGAUCCACAUCUACGAAUUCGUACCAUAGAGAGGUUAUCCGCGUCAUCCGAGAUCGGAAGAGCACACGU
5. target 2 MT 5'PFS GGG 3'PFS ACC (mixed) RNA 1: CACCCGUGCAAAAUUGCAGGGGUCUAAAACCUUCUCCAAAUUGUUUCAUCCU RNA 2: GGGAAUGGAUCCACAUCUACGAAUUCGGGAGGAUGAAACAAUUUGGAGAAGACCAGAUCGGAAGAGCACACGU
6. target 2 MT 5'PFS GUU 3'PFS CGA (mixed) RNA 1: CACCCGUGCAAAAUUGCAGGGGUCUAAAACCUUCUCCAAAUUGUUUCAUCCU RNA 2: GGGAAUGGAUCCACAUCUACGAAUUCGUUAGGAUGAAACAAUUUGGAGAAGCGAAGAUCGGAAGAGCACACGU
7. target 1 C2G,A14C (mixed) RNA 1: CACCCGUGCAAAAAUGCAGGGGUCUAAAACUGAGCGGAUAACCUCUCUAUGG RNA 2: GGGAAUGGAUCCACAUCUACGAAUUCGUACCAUAGAGCGGUUAUCCGCUGACCGAGAUCGGAAGAGCACACGU

Result block:
[7.17, 7.88, 7.68, 8.04, 7.66, 7.82, 7.35]

For every listed record, write down its pKd.
1. target 1 insU 3' of 18,insG 3' of 10 (mixed) RNA 1: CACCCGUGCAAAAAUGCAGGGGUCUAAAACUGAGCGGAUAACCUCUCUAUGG RNA 2: GGGAAUGGAUCCACAUCUACGAAUUCGUACCAUAUGAGAGGUUGAUCCGCUCACCGAGAUCGGAAGAGCACACGU
2. target 1 A1U,C2G (mixed) RNA 1: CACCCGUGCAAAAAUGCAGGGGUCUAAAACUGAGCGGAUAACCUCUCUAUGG RNA 2: GGGAAUGGAUCCACAUCUACGAAUUCGUACCAUAGAGAGGUUAUCCGCUGUCCGAGAUCGGAAGAGCACACGU
3. target 3 U2G,U21C (mixed) RNA 1: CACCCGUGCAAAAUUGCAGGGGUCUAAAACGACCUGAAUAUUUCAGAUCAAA RNA 2: GGGAAUGGAUCCACAUCUACGAAUUCGUUUCUGAUCUGAAAUAUUCAGGGCUGCAGAUCGGAAGAGCACACGU

Result block:
1: 7.17; 2: 8.04; 3: 7.22
